- Test system: HEK-293T
- Assay Overview: Multiplex assay against HEK293T
- Format: toxicity, cell-based
- Condition Set: human, 48 h, 1 µM, compound concentration 1 uM, replicate 1
Readings of Population Normal (%) for the listed compounds
Write down the numeric answer in % and omit the unit.

# Compound, Assayed System, Reported Measurement
data = [
    ("Br.CS(=O)(=O)Nc1c(O)ccc2c1CCCC2C1=NCCN1 (stereo not given)", "HEK-293T", 95),
    ("C[C@H](N)COC(=O)[C@@H](CCCCN)NC(=O)Cc1c(-c2ccc3ccccc3c2)[nH]c2c1ccc1ccccc12", "HEK-293T", 95),
    ("CN[C@@H](C)C(=O)N[C@H](C(=O)N1CCC[C@H]1C(=O)Nc1snnc1-c1ccccc1)C1CCCCC1", "HEK-293T", 95),
]

[ask] Form field: reported Population Normal (%) of `CCCCC1=NC2(CCCC2)C(=O)N1Cc1ccc(-c2ccccc2-c2nnn[nH]2)cc1`
[reply] 96

[ask] I have this compound here, `CCCOc1ccc2[nH]cc(C3=CCNCC3)c2n1.Cl` , and I need its recorded Population Normal (%).
[reply] 97

* * *

- Tested on: U2OS
- Assay Overview: Multiplex assay against U2OS
- Type: toxicity, cell-based
- Condition Set: human, 48 h, 1 µM, compound concentration 1 uM, replicate 2
Item-by-item account of Population Normal (%)
Give the quantity in %, number only.

# Molecule, Readout Name, Reported Measurement
rows = [
    ("CC(/C=C1\\SC(=S)N(CCCC(=O)Nc2ccc(C(=O)O)c(O)c2)C1=O)=C\\c1ccccc1", "Population Normal (%)", 96),
    ("O=C(CCCc1ccccc1)Nc1nc2ccccc2c(=O)s1", "Population Normal (%)", 94),
    ("CCCCC(=O)N(Cc1ccc(-c2ccccc2-c2nnn[nH]2)cc1)[C@H](C(=O)O)C(C)C", "Population Normal (%)", 96),
    ("Cc1sc2c(c1C)C(c1ccc(Cl)cc1)=N[C@@H](CC(=O)NCCCCCCCCNC(=O)COc1cccc3c1C(=O)N(C1CCC(=O)NC1=O)C3=O)c1nnc(C)n1-2 (stereo not given in full)", "Population Normal (%)", 98),
    ("Cc1onc(-c2ccccc2Cl)c1C(=O)N(C)c1ccc(Cl)cc1", "Population Normal (%)", 98),
]

[ask] Value wanted: Population Normal (%) (U2OS) of entry `CCCCC1=NC2(CCCC2)C(=O)N1Cc1ccc(-c2ccccc2-c2nnn[nH]2)cc1`
[reply] 95

[ask] // map `COc1cccc2c1c(NS(=O)(=O)c1ccc(Cl)s1)nn2Cc1cccc(CNC(=O)C(C)(C)O)c1` to recorded Population Normal (%) (system: U2OS)
[reply] 92

[ask] Find the measured Population Normal (%): item `CC(=O)Nc1cccc2c1c(Sc1ccc(Cl)cc1)c(C)n2CC(=O)O` , target or system U2OS.
[reply] 96

[ask] Give the reported Population Normal (%) for `COc1ccccc1N1CCN(C[C@@H](C(=O)NC(C)(C)C)c2ccccc2)CC1.Cl.Cl` (system: U2OS).
[reply] 95

[ask] Lab request: please report Population Normal (%) under test system U2OS for `CN(C)C(=O)Cn1cc(-c2ccc(-c3cncc4ccccc34)cc2)cn1`
[reply] 96

* * *

A collection of molecules and their measured Total Cell Count
- Test system: Fibroblast
- Assay Overview: Multiplex assay against human fibroblast
- Format: toxicity, cell-based
- Condition Set: 24 h, 1 µM, compound concentration 1 uM, replicate 2
// return just the number, without any unit appended

Solved cases (3 shown):
# Molecule, Total Cell Count
rows = [
    ("Br.CS(=O)(=O)Nc1c(O)ccc2c1CCCC2C1=NCCN1 (centres undefined)", 180),
    ("COc1cccc2c1c(NS(=O)(=O)c1ccc(Cl)s1)nn2Cc1cccc(CNC(=O)C(C)(C)O)c1", 110),
    ("O=C(CCCc1ccccc1)Nc1nc2ccccc2c(=O)s1", 131),
]

[ask] Provide value of Total Cell Count for this record tested with Fibroblast: `CC(=O)Nc1cccc2c1c(Sc1ccc(Cl)cc1)c(C)n2CC(=O)O`
[reply] 128

* * *

- Tested on: Fibroblast
- Assay Overview: Multiplex assay against human fibroblast
- Type: toxicity, cell-based
- Condition Set: 12 h, 10 µM, compound concentration 10 uM, replicate 1
Readout Name: Population Fragmented Nuclei (%)
Enter your answer as a number in %; do not include the unit.

# Compound, Readout Name, Reading Unit, Reported Measurement
records = [
    ("CN1CCN(c2cc(-c3ccccc3)nc(N)n2)CC1", "Population Fragmented Nuclei (%)", "%", 16),
    ("COc1ccccc1N1CCN(C[C@@H](C(=O)NC(C)(C)C)c2ccccc2)CC1.Cl.Cl", "Population Fragmented Nuclei (%)", "%", 20),
    ("Cl.N=C(N)NC(=O)Cc1c(Cl)cccc1Cl [GUANFACINE HYDROCHLORIDE]", "Population Fragmented Nuclei (%)", "%", 16),
    ("CC(C)c1noc(N2CCC(COc3ccc(-c4ccc(S(C)(=O)=O)cc4)nc3)CC2)n1", "Population Fragmented Nuclei (%)", "%", 8),
    ("CC(C)COc1ccc(CNC(=O)N(Cc2ccc(F)cc2)C2CCN(C)CC2)cc1", "Population Fragmented Nuclei (%)", "%", 18),
    ("N#Cc1c(Oc2cccc(OS(=O)(=O)CCCC(F)(F)F)c2)cccc1C(F)(F)F", "Population Fragmented Nuclei (%)", "%", 14),
]

[ask] Which Population Fragmented Nuclei (%) is reported for this compound? `CC[C@@H](C)Nc1nc(C)nc2c(-c3ccc(OC)nc3C)c(C)nn12`
[reply] 15

[ask] Can you look up the measured Population Fragmented Nuclei (%) of `CCCCC1=NC2(CCCC2)C(=O)N1Cc1ccc(-c2ccccc2-c2nnn[nH]2)cc1` for me?
[reply] 11

[ask] Bench note: what Population Fragmented Nuclei (%) did O=C(NCCN1CCC(n2c(=O)[nH]c3cc(Cl)ccc32)CC1)c1ccc(F)cc1 [HALOPEMIDE] show?
[reply] 15

[ask] Recorded Population Fragmented Nuclei (%) of `N#Cc1cc(F)cc(-c2nc(-c3ccc(F)cn3)no2)c1` , please.
[reply] 15

[ask] Population Fragmented Nuclei (%) for Cl.NCCc1ccc(O)c(O)c1 [DOPAMINE HYDROCHLORIDE] ?
[reply] 14

[ask] Which Population Fragmented Nuclei (%) reading was recorded for the compound `CCCOc1ccc2[nH]cc(C3=CCNCC3)c2n1.Cl` ?
[reply] 16

[ask] # input compound: `Cc1onc(-c2ccccc2Cl)c1C(=O)N(C)c1ccc(Cl)cc1` ; wanted: its Population Fragmented Nuclei (%)
[reply] 16

[ask] Please report the recorded Population Fragmented Nuclei (%) for `Cc1cnc(-c2cc(N3CCN(C(=O)CCS(C)(=O)=O)CC3)ncc2Cl)c(C)c1` .
[reply] 13

[ask] Any idea what its Population Fragmented Nuclei (%) is? The compound is `CC(=O)Nc1cccc2c1c(Sc1ccc(Cl)cc1)c(C)n2CC(=O)O`
[reply] 16

* * *

- System: U2OS
- Assay Overview: Multiplex assay against U2OS
- Type: toxicity, cell-based
- Condition Set: human, 12 h, 10 µM, compound concentration 10 uM, replicate 1
With a cut-off of 60%, any Population Healthy Nuclei (%) strictly below it is called t; any Population Healthy Nuclei (%) meeting it or above is called f.

Example cases with answers are listed next.
# Compound, Assayed System, Cat
data = [
    ("Cc1sc2c(c1C)C(c1ccc(Cl)cc1)=N[C@@H](CC(=O)NCCCCCCCCNC(=O)COc1cccc3c1C(=O)N(C1CCC(=O)NC1=O)C3=O)c1nnc(C)n1-2 (stereo partly specified)", "U2OS", "t"),
    ("CN(C)C(=O)Cn1cc(-c2ccc(-c3cncc4ccccc34)cc2)cn1", "U2OS", "f"),
    ("CCCCC(=O)N(Cc1ccc(-c2ccccc2-c2nnn[nH]2)cc1)[C@H](C(=O)O)C(C)C", "U2OS", "t"),
]

[ask] Problem: For the compound `Cc1cnc(-c2cc(N3CCN(C(=O)CCS(C)(=O)=O)CC3)ncc2Cl)c(C)c1` , is Population Healthy Nuclei (%) under 60%?
[reply] f

[ask] Population Healthy Nuclei (%) strictly < 60% for this compound? `CN1CCN(c2cc(-c3ccccc3)nc(N)n2)CC1`
[reply] f

[ask] Dear colleague, could you confirm whether Population Healthy Nuclei (%) of `CC(C)COc1ccc(CNC(=O)N(Cc2ccc(F)cc2)C2CCN(C)CC2)cc1` falls below 60%? Thanks.
[reply] t

[ask] A record lists `COc1cccc2c1c(NS(=O)(=O)c1ccc(Cl)s1)nn2Cc1cccc(CNC(=O)C(C)(C)O)c1` . Is its Population Healthy Nuclei (%) below 60%?
[reply] f

[ask] Strictly below 60%: is that where Population Healthy Nuclei (%) of CCCCCC(O)/C=C/[C@H]1C(=O)CC(O)C1C/C=C\CCCC(=O)O (stereo partly specified) sits?
[reply] f

[ask] Strictly below 60% in Population Healthy Nuclei (%)? `CCc1cc2cc(NS(=O)(=O)c3ccc(C#N)cc3)ccc2n(CC)c1=O`
[reply] f
